target: human indoleamine 2,3-dioxygenase (Homo sapiens, UniProt P14902)
Sequence (P14902 whole entry): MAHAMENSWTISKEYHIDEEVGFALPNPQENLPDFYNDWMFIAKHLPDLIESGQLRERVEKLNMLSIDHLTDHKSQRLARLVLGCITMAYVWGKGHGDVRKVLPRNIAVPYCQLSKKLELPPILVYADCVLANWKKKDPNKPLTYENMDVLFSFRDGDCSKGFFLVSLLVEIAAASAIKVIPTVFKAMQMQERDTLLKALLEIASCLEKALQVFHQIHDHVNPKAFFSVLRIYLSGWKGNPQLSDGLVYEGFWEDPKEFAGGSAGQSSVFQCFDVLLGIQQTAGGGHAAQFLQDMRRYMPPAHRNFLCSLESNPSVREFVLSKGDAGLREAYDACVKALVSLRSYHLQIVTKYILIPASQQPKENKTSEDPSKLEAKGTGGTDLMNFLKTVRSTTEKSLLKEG
Endpoint Label: IC50 (nM)

// worked examples, IC50 included
>>> df
                                 cpd_smiles  endpoint_label  reading
0  N/C(=N\S(=O)(=O)CC1CCCCC1)NCCCNc1nonc1/C(=N/O)Nc1ccc(F)c(Br)c1            IC50       72
1  CCC(=O)NC(=N)NCCNc1nonc1/C(=N/O)Nc1ccc(F)c(Br)c1            IC50      343

P = CC(C)(C)OC(=O)N=C(N)NCCCNc1nonc1/C(=N/O)Nc1ccc(F)c(Br)c1
Q = N/C(=N\C(=O)C1CCC1)NCCNc1nonc1/C(=N/O)Nc1ccc(F)c(Br)c1
Prompt: Look at P and Q . Which one has the lower recorded IC50 number? Pick one and reply with its label.
Response: P

Entry source: patent US20200325109A1
